These entries and their values trace back to paper PMC5933782.

- tested_on: CLK1 (Mus musculus, UniProt P22518)
- Sequence (P22518 whole entry): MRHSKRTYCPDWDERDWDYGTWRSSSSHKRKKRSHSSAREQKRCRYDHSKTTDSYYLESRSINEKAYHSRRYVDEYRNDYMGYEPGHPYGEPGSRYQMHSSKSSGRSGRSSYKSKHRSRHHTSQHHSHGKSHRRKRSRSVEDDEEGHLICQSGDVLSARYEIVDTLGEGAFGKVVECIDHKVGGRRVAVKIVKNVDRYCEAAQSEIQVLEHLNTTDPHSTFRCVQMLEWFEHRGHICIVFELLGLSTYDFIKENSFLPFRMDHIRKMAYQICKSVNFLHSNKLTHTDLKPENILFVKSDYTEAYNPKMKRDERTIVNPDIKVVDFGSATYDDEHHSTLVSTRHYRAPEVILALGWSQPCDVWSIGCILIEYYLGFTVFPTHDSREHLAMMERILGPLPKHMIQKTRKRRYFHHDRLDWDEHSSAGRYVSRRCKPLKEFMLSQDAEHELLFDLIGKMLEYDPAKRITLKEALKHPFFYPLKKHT
- method: radiometric protein kinase assay
- condition_notes: 10 µM concentration; ± SEM
readout: Residual enzyme activity CLK 1
Mention the unit after the number when you answer.

Some compounds with recorded Residual enzyme activity CLK 1:
• Cc1ccc(-c2[nH]c3c4c(ccc3c2C)CNC4=O)cc1 [S18e] = 105±12%
• Cc1[nH]c2c3c(ccc2c1C)C(=O)NC3=O [S19] = 52±10%

The following compounds each have a reported value; give each one's Residual enzyme activity CLK 1.
1. Cc1[nH]c2c3c(ccc2c1C)CNC3=O [S18b]
2. Cc1c(-c2ccccc2)[nH]c2c3c(ccc12)CNC3=O [S18c]

92±8%
29±4%

The following compounds each have a reported value; give each one's Residual enzyme activity CLK 1.
1. CCc1c(-c2ccccc2)[nH]c2c3c(ccc12)CNC3=O [S18d]
2. CCc1[nH]c2c3c(ccc2c1C)CNC3=O [S18a]

1: 66±3%; 2: 20±2%

---

- tested_on: DYRK2 (Homo sapiens)
- Sequence (Q92630 1-601): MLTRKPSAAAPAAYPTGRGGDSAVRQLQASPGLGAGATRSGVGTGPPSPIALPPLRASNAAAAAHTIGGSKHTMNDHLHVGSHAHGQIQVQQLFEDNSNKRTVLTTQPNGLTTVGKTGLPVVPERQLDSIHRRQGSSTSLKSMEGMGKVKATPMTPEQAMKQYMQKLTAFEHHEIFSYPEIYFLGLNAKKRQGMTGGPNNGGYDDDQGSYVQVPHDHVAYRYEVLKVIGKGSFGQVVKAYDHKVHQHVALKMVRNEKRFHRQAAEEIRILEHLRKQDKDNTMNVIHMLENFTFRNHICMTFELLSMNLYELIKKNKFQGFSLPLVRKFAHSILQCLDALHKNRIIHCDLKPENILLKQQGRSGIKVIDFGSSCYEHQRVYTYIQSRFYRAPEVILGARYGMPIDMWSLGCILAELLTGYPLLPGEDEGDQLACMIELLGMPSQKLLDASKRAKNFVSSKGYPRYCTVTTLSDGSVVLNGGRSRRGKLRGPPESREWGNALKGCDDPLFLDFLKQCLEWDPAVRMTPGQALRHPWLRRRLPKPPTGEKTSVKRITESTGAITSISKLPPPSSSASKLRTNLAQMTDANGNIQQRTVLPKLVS
readout: pIC50
Answers are plain numbers, as −log10 of the molar value.

The following compounds each have a reported value; give each one's pIC50.
1. Cc1cccc(-c2c[nH]c3c4c(ccc23)CNC4=O)c1
2. CC(=O)Oc1cccc(-c2c[nH]c3c4c(ccc23)CNC4=O)c1
3. Cc1[nH]c2c3c(c(Br)cc2c1-c1ccccc1)CNC3=O [12b]
4. O=C1NCc2ccc3c(-c4ccc(Cl)cc4)c[nH]c3c21

5.51
5.62
6.96
5.03

---

pIC50: −log10 of the molar value.
pIC50, UniProt O43781, per-entry values.
Sequence (O43781 whole entry): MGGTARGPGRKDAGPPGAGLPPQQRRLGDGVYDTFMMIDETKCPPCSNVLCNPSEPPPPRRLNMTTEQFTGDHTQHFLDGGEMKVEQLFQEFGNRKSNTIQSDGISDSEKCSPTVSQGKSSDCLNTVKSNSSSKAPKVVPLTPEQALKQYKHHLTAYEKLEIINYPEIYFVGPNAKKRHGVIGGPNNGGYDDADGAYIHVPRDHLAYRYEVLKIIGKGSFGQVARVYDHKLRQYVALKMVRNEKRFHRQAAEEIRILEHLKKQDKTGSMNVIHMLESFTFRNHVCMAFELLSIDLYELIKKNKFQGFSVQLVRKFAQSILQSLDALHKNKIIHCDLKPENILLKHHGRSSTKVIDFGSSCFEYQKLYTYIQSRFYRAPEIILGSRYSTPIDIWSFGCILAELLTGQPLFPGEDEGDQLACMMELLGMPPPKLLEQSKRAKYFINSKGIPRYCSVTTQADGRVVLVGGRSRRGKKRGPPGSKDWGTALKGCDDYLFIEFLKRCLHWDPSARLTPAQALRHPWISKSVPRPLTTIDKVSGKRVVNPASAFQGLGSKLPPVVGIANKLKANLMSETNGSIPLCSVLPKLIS

- O=C1NCc2c(-c3cccc(F)c3)cc3c(-c4ccccc4)c[nH]c3c21 [17c]: < 5.00

The following compounds each have a reported value; give each one's pIC50.
1. O=C1NCc2ccc3c(-c4ccc(Cl)cc4)c[nH]c3c21
2. O=C1NCc2ccc3c(-c4ccc(Cl)c(Cl)c4)c[nH]c3c21
3. O=C1NCc2c(-c3ccccc3F)cc3c(-c4ccccc4)c[nH]c3c21 [17b]
4. NC(=O)Cn1cc(-c2ccccc2)c2ccc3c(c21)C(=O)NC3 [15c]
5. CC(=O)Oc1cccc(-c2c[nH]c3c4c(ccc23)CNC4=O)c1
6. O=C1NCc2c(Cl)cc3c(-c4ccccc4)c[nH]c3c21 [12c]
7. CN1Cc2ccc3c(-c4ccccc4)c[nH]c3c2C1=O [12d]
8. COc1cccc(-c2c[nH]c3c4c(ccc23)CNC4=O)c1

1. < 5.00
2. < 5.00
3. < 5.00
4. < 5.00
5. 5.21
6. < 5.00
7. < 5.00
8. 5.27

Name the recorded pIC50 for "O=C1NCc2ccc3c(-c4ccccc4)c(Br)[nH]c3c21" .
5.41

---

- tested_on: CLK3 (Mus musculus, UniProt O35492)
- Sequence (O35492 whole entry): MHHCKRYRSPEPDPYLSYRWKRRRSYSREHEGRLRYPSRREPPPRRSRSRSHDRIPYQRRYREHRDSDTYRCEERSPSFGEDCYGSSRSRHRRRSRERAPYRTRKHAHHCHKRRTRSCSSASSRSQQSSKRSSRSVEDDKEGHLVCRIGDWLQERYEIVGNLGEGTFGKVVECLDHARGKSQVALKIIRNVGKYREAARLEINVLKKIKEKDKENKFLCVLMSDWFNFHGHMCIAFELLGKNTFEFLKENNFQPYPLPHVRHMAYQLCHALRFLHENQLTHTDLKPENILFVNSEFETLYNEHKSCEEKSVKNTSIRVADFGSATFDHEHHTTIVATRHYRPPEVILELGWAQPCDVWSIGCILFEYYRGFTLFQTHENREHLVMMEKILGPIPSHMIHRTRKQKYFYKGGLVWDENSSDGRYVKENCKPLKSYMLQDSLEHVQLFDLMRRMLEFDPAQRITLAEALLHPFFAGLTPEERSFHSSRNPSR
readout: IC50 (µM)
One number for each entry, in µM.

• Cc1cccc(-c2c[nH]c3c4c(ccc23)CNC4=O)c1 = 5.1
• O=C1NCc2ccc3c(-c4ccccc4)c(Br)[nH]c3c21 = 2.8
• COc1cccc(-c2c[nH]c3c4c(ccc23)CNC4=O)c1 = 2.8

Moving on to another compound below.
Name the recorded IC50 for Cc1[nH]c2c3c(c(Br)cc2c1-c1ccccc1)CNC3=O [12b] .
7.1

---

- tested_on: CLK1 (Mus musculus)
pIC50: −log10 of the molar value.
Record satisfied whenever pIC50 is at 7 or higher; record not satisfied when lower.

Use these answered entries as a reference point.
• CN1Cc2ccc3c(-c4ccccc4)cn(C)c3c2C1=O [15e] = not satisfied
• O=C1NCc2c(Cl)cc3c(-c4ccccc4)c[nH]c3c21 [12c] = not satisfied
• Cc1[nH]c2c3c(c(Br)cc2c1-c1ccccc1)CNC3=O [12b] = satisfied
• O=C1NCc2ccc3c(-c4cccc([N+](=O)[O-])c4)c[nH]c3c21 [8j] = satisfied
• O=C1NCc2c(-c3ccccc3)cc3c(-c4ccccc4)c[nH]c3c21 [17a] = not satisfied

// inclusive: pIC50 at least 7? input: O=C1NCc2c(-c3ccccc3F)cc3c(-c4ccccc4)c[nH]c3c21 [17b]
not satisfied

// inclusive: pIC50 at least 7? input: O=C1NCc2ccc3c(-c4cccc(O)c4)c[nH]c3c21 [8g]
satisfied

// inclusive: pIC50 at least 7? input: CCOC(=O)Cn1cc(-c2ccccc2)c2ccc3c(c21)C(=O)NC3 [15d]
not satisfied

// inclusive: pIC50 at least 7? input: O=C1NCc2c(-c3cccc(F)c3)cc3c(-c4ccccc4)c[nH]c3c21 [17c]
not satisfied

// inclusive: pIC50 at least 7? input: CCn1cc(-c2ccccc2)c2ccc3c(c21)C(=O)NC3 [15b]
not satisfied

// inclusive: pIC50 at least 7? input: O=C1NCc2ccc3c(-c4ccccc4)c[nH]c3c21 [8a]
satisfied

---

pIC50, CLK3 (Mus musculus), per-entry values.
One number for each entry, as −log10 of the molar value.

Some compounds with recorded pIC50:
• O=C1NCc2c(Cl)cc3c(-c4ccccc4)c[nH]c3c21 [12c] = 5.66
• O=C1NCc2ccc3c(-c4ccc(Cl)cc4)c[nH]c3c21 [8d] = 5.74

Name the recorded pIC50 for O=C1NCc2ccc3c(-c4cccc(O)c4)c[nH]c3c21 [8g] .
5.77

---

Structures can show the parent of a compound that is named as a salt.
readout: melting point

- O=C1NCc2ccc3c(-c4cccc([N+](=O)[O-])c4)c[nH]c3c21: 237 to 238 °C (dec.)
- CCn1cc(-c2ccccc2)c2ccc3c(c21)C(=O)NC3 [15b]: 198 to 200 °C
- Cn1cc(-c2ccccc2)c2ccc3c(c21)C(=O)NC3 [15a]: 255 to 256 °C
- Cc1cccc(-c2c[nH]c3c4c(ccc23)CNC4=O)c1 (as salt: sodium): 231 to 232 °C
- O=C1NCc2ccc3c(-c4ccccc4)c[nH]c3c21 (as salt: sodium): 294 to 295 °C
- O=C1NCc2c(Br)cc3c(-c4ccccc4)c[nH]c3c21 (as salt: sodium) [12a]: 226 to 227 °C

Moving on to another compound below.
Name the recorded melting point for "COc1cccc(-c2c[nH]c3c4c(ccc23)CNC4=O)c1" .
207 to 208 °C

---

Provide the recorded pIC50 for the entries that follow.
- tested_on: UniProt:Q9Y463
- Sequence (Q9Y463 whole entry): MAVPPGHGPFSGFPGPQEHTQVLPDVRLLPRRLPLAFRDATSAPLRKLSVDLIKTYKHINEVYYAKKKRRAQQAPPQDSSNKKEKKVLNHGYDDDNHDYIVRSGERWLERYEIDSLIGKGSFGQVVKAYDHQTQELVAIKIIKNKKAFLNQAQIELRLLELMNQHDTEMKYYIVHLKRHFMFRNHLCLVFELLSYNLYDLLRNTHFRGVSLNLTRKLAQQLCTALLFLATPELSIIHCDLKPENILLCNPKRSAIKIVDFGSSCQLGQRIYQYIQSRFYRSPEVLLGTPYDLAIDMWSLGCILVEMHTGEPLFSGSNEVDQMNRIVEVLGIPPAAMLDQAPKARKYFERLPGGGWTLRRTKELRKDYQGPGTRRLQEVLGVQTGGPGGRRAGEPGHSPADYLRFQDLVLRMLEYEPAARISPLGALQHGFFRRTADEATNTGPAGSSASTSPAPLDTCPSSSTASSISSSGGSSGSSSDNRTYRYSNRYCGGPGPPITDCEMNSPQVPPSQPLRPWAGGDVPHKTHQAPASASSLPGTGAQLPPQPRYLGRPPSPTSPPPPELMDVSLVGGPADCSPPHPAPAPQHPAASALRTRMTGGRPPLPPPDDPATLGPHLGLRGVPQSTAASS
pIC50: −log10 of the molar value.

Some compounds with recorded pIC50:
* O=C1NCc2c(-c3ccccc3)cc3c(-c4ccccc4)c[nH]c3c21 [17a] | < 5.00
* O=C1NCc2ccc3c(-c4ccc(Cl)cc4)c[nH]c3c21 | < 5.00
* O=C1NCc2ccc3c(-c4cccc(Cl)c4)c[nH]c3c21 | < 5.00
* O=C1NCc2c(-c3ccccc3F)cc3c(-c4ccccc4)c[nH]c3c21 [17b] | < 5.00
* CN1Cc2ccc3c(-c4ccccc4)c[nH]c3c2C1=O [12d] | < 5.00

The following compounds each have a reported value; give each one's pIC50.
1. CN1Cc2ccc3c(-c4ccccc4)cn(C)c3c2C1=O [15e]
2. O=C1NCc2ccc3c(-c4ccc(Cl)c(Cl)c4)c[nH]c3c21
3. Cn1cc(-c2ccccc2)c2ccc3c(c21)C(=O)NC3 [15a]
4. O=C1NCc2c(-c3cccc(F)c3)cc3c(-c4ccccc4)c[nH]c3c21 [17c]
5. O=C1NCc2ccc3c(-c4ccccc4)c(Br)[nH]c3c21
6. O=C1NCc2c(Cl)cc3c(-c4ccccc4)c[nH]c3c21 [12c]
7. O=C1NCc2ccc3c(-c4ccccc4)c[nH]c3c21

1. < 5.00
2. < 5.00
3. < 5.00
4. < 5.00
5. 5.89
6. 5.74
7. 5.32
